tested on: Rat hepatocyte suspensions; test: Hepatocyte incubations, rat; type: in vitro ADME; conditions: rat hepatocytes, 5 uM, 60 minutes; NR = no reaction; unit assumed
measured-endpoint: Hepatocyte Rat 60/120′ (5 uM): 60′ (%)
Answers are plain numbers, in %.

See these solved cases before continuing.
>  <molecule>
COc1cc2c(cc1C(N)=O)CC[C@@H]1[C@@H]2CC[C@]2(C)C=CC[C@@H]12

>  <tested-target>
Rat hepatocyte suspensions

>  <readout-value>
78

$$$$
>  <molecule>
C=C1CC[C@H]2[C@@H]3CCc4cc(C(N)=O)c(OC)cc4[C@H]3CC[C@]12C

>  <tested-target>
Rat hepatocyte suspensions

>  <readout-value>
87

$$$$
>  <molecule>
COc1cc2c(cc1C(N)=O)CC[C@@H]1[C@@H]2CC[C@]2(C)C(=O)CC[C@@H]12

>  <tested-target>
Rat hepatocyte suspensions

>  <readout-value>
95

$$$$

Each of the following entries comes with a recorded value; kindly state Hepatocyte Rat 60/120′ (5 uM): 60′ for each.
1. COc1cc2c(cc1C(N)=O)CC[C@@H]1[C@@H]2CC[C@]2(C)CCC[C@@H]12
2. COc1cc2c(cc1O)CC[C@@H]1[C@@H]2CC[C@]2(C)[C@@H](O)CC[C@@H]12 [Compound 1, 2-Methoxyestradiol, reference compound]

Completion:
95
39

---

system: Rat hepatocyte suspensions; assay: Hepatocyte incubations, rat; format: in vitro ADME; conditions: rat hepatocytes, 1 uM, 60 minutes; NR = no reaction; in % (unit assumed)
measured-endpoint: Hepatocyte Rat 60/120′ (1 uM): 60′
Answers are plain numbers.

See these solved cases before continuing.
>  <smiles-representation>
C=C1CC[C@H]2[C@@H]3CCc4cc(C(N)=O)c(OC)cc4[C@H]3CC[C@]12C

>  <tested-target>
Rat hepatocyte suspensions

>  <readout-value>
99

$$$$
>  <smiles-representation>
COc1cc2c(cc1C(N)=O)CC[C@@H]1[C@@H]2CC[C@]2(C)CCC[C@@H]12

>  <tested-target>
Rat hepatocyte suspensions

>  <readout-value>
91

$$$$
>  <smiles-representation>
COc1cc2c(cc1C(N)=O)CC[C@@H]1[C@@H]2CC[C@]2(C)C=CC[C@@H]12

>  <tested-target>
Rat hepatocyte suspensions

>  <readout-value>
77

$$$$

With those in mind, consider the next molecule.
Prompt: Give the value of Hepatocyte Rat 60/120′ (1 uM): 60′ reported for the following: "COc1cc2c(cc1C(N)=O)CC[C@@H]1[C@@H]2CC[C@]2(C)C(=O)CC[C@@H]12"
Completion: 78

---

tested on: MCF7 cells; assay: MCF7 estrogen-dependent proliferation assay (estrogenicity); assay type: cell-based, human; details: stimulation index, 2ME2 defined as 1.00; less than 1.00 = reduced estrogenicity; 7 days of treatment
measured-endpoint: MCF7 SI Relative to 2ME2
Numbers only.

See these solved cases before continuing.
>  <compound>
C=C1CC[C@H]2[C@@H]3CCc4cc(C(N)=O)c(OC)cc4[C@H]3CC[C@]12C

>  <tested-target>
MCF7 cells

>  <readout-value>
0.26

$$$$
>  <compound>
COc1cc2c(cc1O)CC[C@@H]1[C@@H]2CC[C@]2(C)[C@@H](O)CC[C@@H]12 [Compound 1, 2-Methoxyestradiol, reference compound]

>  <tested-target>
MCF7 cells

>  <readout-value>
1.00

$$$$
>  <compound>
COc1cc2c(cc1C(N)=O)CC[C@@H]1[C@@H]2CC[C@]2(C)CCC[C@@H]12

>  <tested-target>
MCF7 cells

>  <readout-value>
0.31

$$$$
>  <compound>
COc1cc2c(cc1C(N)=O)CC[C@@H]1[C@@H]2CC[C@]2(C)C=CC[C@@H]12

>  <tested-target>
MCF7 cells

>  <readout-value>
0.28

$$$$

With those in mind, consider the next compound.
Prompt: Find MCF7 SI Relative to 2ME2 for "COc1cc2c(cc1C(N)=O)CC[C@@H]1[C@@H]2CC[C@]2(C)C(=O)CC[C@@H]12" on MCF7 cells and write it down.
Completion: 0.26

---

Provide the recorded Hepatocyte Rat 60/120′ (5 uM): 120′ for the entries that follow.
system: Rat hepatocyte suspensions; assay: Hepatocyte incubations, rat; assay type: in vitro ADME; details: rat hepatocytes, 5 uM, 120 minutes; NR = no reaction; unit assumed
One number for each entry, in %.

See these solved cases before continuing.
>  <molecule>
COc1cc2c(cc1C(N)=O)CC[C@@H]1[C@@H]2CC[C@]2(C)C(=O)CC[C@@H]12 [Compound 54]

>  <tested-target>
Rat hepatocyte suspensions

>  <readout-value>
101

$$$$
>  <molecule>
COc1cc2c(cc1C(N)=O)CC[C@@H]1[C@@H]2CC[C@]2(C)C=CC[C@@H]12 [Compound 63]

>  <tested-target>
Rat hepatocyte suspensions

>  <readout-value>
87

$$$$
>  <molecule>
COc1cc2c(cc1C(N)=O)CC[C@@H]1[C@@H]2CC[C@]2(C)CCC[C@@H]12 [Compound 57]

>  <tested-target>
Rat hepatocyte suspensions

>  <readout-value>
83

$$$$

With those in mind, consider the next molecule.
Prompt: Give the value of Hepatocyte Rat 60/120′ (5 uM): 120′ reported for the following: COc1cc2c(cc1O)CC[C@@H]1[C@@H]2CC[C@]2(C)[C@@H](O)CC[C@@H]12 [Compound 1, 2-Methoxyestradiol, reference compound]
Completion: 24

---

test system: human hepatocyte suspensions; assay: Hepatocyte incubations, human; format: in vitro ADME; conditions: human hepatocytes, 1 uM, 120 minutes; NR = no reaction
measured-endpoint: Hepatocyte Human 60/120′ (1 uM): 120′
Answers are plain numbers.

>  <smiles-representation>
COc1cc2c(cc1C(N)=O)CC[C@@H]1[C@@H]2CC[C@]2(C)C=CC[C@@H]12

>  <tested-target>
human hepatocyte suspensions

>  <readout-value>
70

$$$$
>  <smiles-representation>
COc1cc2c(cc1C(N)=O)CC[C@@H]1[C@@H]2CC[C@]2(C)C(=O)CC[C@@H]12

>  <tested-target>
human hepatocyte suspensions

>  <readout-value>
102

$$$$

Each of the following entries comes with a recorded value; kindly state Hepatocyte Human 60/120′ (1 uM): 120′ for each.
1. C=C1CC[C@H]2[C@@H]3CCc4cc(C(N)=O)c(OC)cc4[C@H]3CC[C@]12C
2. COc1cc2c(cc1C(N)=O)CC[C@@H]1[C@@H]2CC[C@]2(C)CCC[C@@H]12

Completion:
[91, 98]

---

system: human hepatocyte suspensions; assay: Hepatocyte incubations, human; assay type: in vitro ADME; details: human hepatocytes, 5 uM, 120 minutes; NR = no reaction
measured-endpoint: Hepatocyte Human 60/120′ (5 uM): 120′
Give bare numbers.

>  <compound>
COc1cc2c(cc1C(N)=O)CC[C@@H]1[C@@H]2CC[C@]2(C)CCC[C@@H]12

>  <measured-endpoint>
Hepatocyte Human 60/120′ (5 uM): 120′

>  <readout-value>
118

$$$$
>  <compound>
COc1cc2c(cc1C(N)=O)CC[C@@H]1[C@@H]2CC[C@]2(C)C=CC[C@@H]12

>  <measured-endpoint>
Hepatocyte Human 60/120′ (5 uM): 120′

>  <readout-value>
71

$$$$

Each of the following entries comes with a recorded value; kindly state Hepatocyte Human 60/120′ (5 uM): 120′ for each.
1. COc1cc2c(cc1O)CC[C@@H]1[C@@H]2CC[C@]2(C)[C@@H](O)CC[C@@H]12 [Compound 1, 2-Methoxyestradiol, reference compound]
2. COc1cc2c(cc1C(N)=O)CC[C@@H]1[C@@H]2CC[C@]2(C)C(=O)CC[C@@H]12
3. C=C1CC[C@H]2[C@@H]3CCc4cc(C(N)=O)c(OC)cc4[C@H]3CC[C@]12C

Completion:
1: 0; 2: 103; 3: 93

---

Provide the recorded Cmax for the entries that follow.
experiment: Rat pharmacokinetics, cassette dosing, oral; assay type: in vivo; conditions: rat, oral 5 mg/kg, plasma
Numbers only, in nM.

>  <smiles-representation>
C=C1CC[C@H]2[C@@H]3CCc4cc(C(N)=O)c(OC)cc4[C@H]3CC[C@]12C

>  <value-unit>
nM

>  <Cmax>
185

$$$$

With those in mind, consider the next molecule.
Prompt: Give the value of Cmax reported for the following: "COc1cc2c(cc1C(N)=O)CC[C@@H]1[C@@H]2CC[C@]2(C)C(=O)CC[C@@H]12"
Completion: 47

---

tested on: U87-MG a human glioma; assay: Proliferation assay, U87-MG; format: cell-based; conditions: Example 2, Table VII; read-out: IC50 value (μM) U87-MG
measured-endpoint: IC50
Express the reported value numerically, then name its unit.

>  <compound>
COc1cc2c(cc1C(N)=O)CC[C@@H]1[C@@H]2CC[C@]2(C)[C@@H](OC)CC[C@@H]12 [ENMD-1756]

>  <IC50>
0.71 µM

$$$$

With those in mind, consider the next compound.
Prompt: Find IC50 for COc1cc2c(cc1C(N)=O)CC[C@@H]1[C@@H]2CC[C@@]2(C)[C@H]1CCC21OCCO1 [ENMD-1565] on U87-MG a human glioma and write it down.
Completion: 1.27 µM
